- Subject of test: recombinant 15-PGDH (Homo sapiens (Human))
- Sequence (P15428 whole entry): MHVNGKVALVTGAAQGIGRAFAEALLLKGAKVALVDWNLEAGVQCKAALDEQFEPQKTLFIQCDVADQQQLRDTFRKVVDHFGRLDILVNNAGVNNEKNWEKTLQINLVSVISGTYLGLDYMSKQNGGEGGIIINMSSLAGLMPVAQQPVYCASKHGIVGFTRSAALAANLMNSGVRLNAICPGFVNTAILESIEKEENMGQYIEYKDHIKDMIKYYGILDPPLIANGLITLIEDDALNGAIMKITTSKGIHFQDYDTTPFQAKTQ
- Protocol: Inhibition of enzymatic activity of recombinant 15-PGDH in vitro (NADH generation)
- Format: biochemical
- Particulars: read-out: Enzyme Inhibitor IC50 (nM) at 5 nM 15-PGDH; 5 nM recombinant human 15-PGDH
log10 of IC50 overview
For clarity, the numbers are log10 values of IC50 expressed in nM.

Here's what some known entries look like.
// query Please give the measured log10 of IC50 for this compound: CCCC[S+]([O-])c1sc2nc(-c3nccs3)ccc2c1N (stereo not shown)
// result 0.15

// query Please give the measured log10 of IC50 for this compound: CC(C)[S+]([O-])c1sc2nc(-c3nccs3)cc(-c3nccn3C)c2c1N (stereo not shown)
// result 0.62

// query Please give the measured log10 of IC50 for this compound: CCCC[S+]([O-])c1sc2nc(-c3cccs3)cc(C)c2c1N (stereo not shown)
// result 0.16

// query Please give the measured log10 of IC50 for this compound: CC(=O)OCCCC[S+]([O-])c1sc2nc(-c3cccs3)cc(-c3ccccc3)c2c1N (stereo not shown)
// result 1.62

// query Please give the measured log10 of IC50 for this compound: CCCC[S+]([O-])c1sc2nc(-c3cccs3)cc(-c3ccc(Br)cc3)c2c1N (stereo not shown)
// result 0.46

New cases:
// query Please give the measured log10 of IC50 for this compound: Nc1c([S+]([O-])CCCCO)sc2nc(-c3cccs3)cc(-c3ccccc3)c12 (stereo not shown)
// result 1.53

// query Please give the measured log10 of IC50 for this compound: CCCC[S+]([O-])c1cc2ccc(-c3ccccc3)nc2s1 (stereo not shown)
// result 0.55

// query Please give the measured log10 of IC50 for this compound: CS(=O)(=O)c1sc2nc(-c3cccs3)cc(-c3ccccc3)c2c1N
// result 2.72

// query Please give the measured log10 of IC50 for this compound: CCC[S+]([O-])c1sc2nc(-c3nccs3)cc(-c3nccn3C)c2c1N (stereo not shown)
// result 0.57

// query Please give the measured log10 of IC50 for this compound: CCCC[S+]([O-])c1sc2nc(-c3nccs3)c(C(=O)OCC)c(-c3ccc(Br)cc3)c2c1N (stereo not shown)
// result 1.61

// query Please give the measured log10 of IC50 for this compound: Nc1c([S+]([O-])CCCCCl)sc2nc(-c3cccs3)cc(-c3ccccc3)c12 (stereo not shown)
// result 0.64
